Assay: dynamic solubility in simulated gastrointestinal fluid
Format: physicochemical
Conditions: fessif, thermodynamic from solid; simulated postprandial intestinal fluid, 37° C., 1 h
Outcome Measure: solubility at 1 h
Form entry: enter the amount, then its unit.

Exam item: Answer with reported solubility at 1 h of Cc1cnc(Nc2cnn(C3CC(C)(C)OC(C)(C)C3)c2)nc1-c1ccc(C(=O)NCC#N)cc1 [crystal form I]
Marked response: 389 µg/mL
